Target: T1, human IL13 (human, UniProt P35225 35-146, biotinylated in the SPR assays (sites not given))
T1 construct: Peprotech; also called hIL13; recombinant human IL13
T1 sequence (P35225 other isoform, or with tags, fused parts or gaps limits assumed): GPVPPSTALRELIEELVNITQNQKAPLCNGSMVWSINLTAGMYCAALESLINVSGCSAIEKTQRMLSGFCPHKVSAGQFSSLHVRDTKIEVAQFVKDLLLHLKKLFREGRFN
Experiment: SPR BIAcore, biotin-IL13 on SA chip, global fit
Define the label as Satisfied when koff is strictly less than 0.0001 s⁻¹ and as Not satisfied in all remaining cases.

# binder, answer-label
rows = [
    ("5B9 (designed binder, N-Cap-(AR)3-C-Cap) DLGKKLLEAARAGQDDEVRILMANGADVNATDVFGSTPLHLAARHGHLEIVEVLLKHGADVNATDFIGDTPLHLAAYHGHLEIVEVLLKHGADVNAKNGETPLHLAAYHGHPDIVEVLLKHGADVNAQDKFGKTAFDISIDNGNEDLAEILQKLN", "Not satisfied"),
    ("9E11 (designed binder, N-Cap-(AR)3-C-Cap) DLGKKLLEAARAGQDDEVRILMANGADVNASDIYGSTPLHLAARHGHLEIVEVLLKNGADVNANDMIGDTPLHLAAYHGHLEIVEVLLKHGADVNASDITGETPLHLAAHNGHLEIVEVLLKYGADVNAQDKFGKTAFDISIDNGNEDLAEILQKLN", "Satisfied"),
]

IN: Quick check: does 10A6 (designed binder, N-Cap-(AR)2-C-Cap, only 2 ARs) DLGKKLLEAARAGQDDEVRILMANGADVNAIDHFDSTPLHLAARHGHLEIVEVLLKNGADVNADDFLGDTPLHLAAYHGHLDIVEVLLKHGADVNAQDKFGKTAFDISIDNGNEDLAEILQKLN have koff under 0.0001 s⁻¹?
OUT: Not satisfied

IN: Determine if 5H7 (designed binder, N-Cap-(AR)3-C-Cap) DLGKKLLEAARAGQDDEVRILMANGADVNAADMYGTTPQHLAARTGHLEIVEVLLKYGADVNAADFLGDTPLHLAAYHGHLEIVEVLLKHGADVNASDITGETPLHLAAHLGHLEIVEVLLKYGADVNAQDKFGKTAFDISIDNGNEDLAEILQKLN shows koff strictly lower than 0.0001 s⁻¹.
OUT: Not satisfied

IN: koff under 0.0001 s⁻¹? Item: 7C6 (designed binder, N-Cap-(AR)3-C-Cap) DLGKKLLEAARAGQDDEVRILMANGADVNAMDKYGSTPLHLAARSGHLEIVEVLLKHGADVNATDFIGDTPLHLAAYHGHLEIVEVLLKHGADVNAEDITGETPLHLAAESGHLEIVEVLLKHGADVNAQDKFGKTAFDISIDNGNEDLAEILQKLN
OUT: Not satisfied

IN: Threshold test, koff < 0.0001 s⁻¹: 7G11 (designed binder, ankyrin repeat protein) DLGKKLLEAARAGQDDEVRILMANGADVNATDEFDSTPLHLAARHGHLEIVEVLLKYGADVNAADFIGDTPLHLAAYRGHLEIVEVLLKCGVDVNADDHGDTPLHLAASMGHLEIVEVLLKNGADVNAQDKFGKTAFDISIDNGNEDLAEILQKLN
OUT: Satisfied
